System: HFP4
Test: in vitro
Set-up: MTT metabolic activity assay, absorbance at 570 nm
Conditions: replicate 2; single replicate; 48 h; read-out: Bis-PMS 5 (IC50 / µM)
Where a name gives a salt, the structure may show the parent alone.
experimental-readout: CC50
Put down the number, then write its unit next to it.

Ask: Return CC50 for the following compound: CN1C(=CC=C(C=CC2=[N+](C)c3ccccc3C2(C)C)c2ccc(C(C=CC3=[N+](C)c4ccccc4C3(C)C)=CC=C3N(C)c4ccccc4C3(C)C)cc2)C(C)(C)c2ccccc21 [compound 5, p-bis-pentamethinium salt 5]
Reply: 0.427 µM

====

Assay: in vitro
Set-up: MTT metabolic activity assay, absorbance at 570 nm
Conditions: human, bj-htert cells, Bis-PMS 5 (IC50 / µM); replicate 2; single replicate
Experimental: A colorimetric MTT cell metabolic activity assay was used to determine the cytotoxicity of Bis-PMSs 5 and 6. […] The absorbance of the converted dye was measured at a wavelength of 570 nm with the reference of 630 nm using a SpectraMax ABS Plus microplate reader (Molecular Devices). […] The cell inhibitory concentration (IC) was calculated using the equation IC = (APMS well/mean Acontrol wells) × 100%. […]
Counter-ions that a name gives are not always drawn.
experimental-readout: CC50 at 48 h (µM)
Numbers only; they are read as µM.

Ask: # return recorded CC50 at 48 h for input CN1C(=CC=C(C=CC2=[N+](C)c3ccccc3C2(C)C)c2ccc(C(C=CC3=[N+](C)c4ccccc4C3(C)C)=CC=C3N(C)c4ccccc4C3(C)C)cc2)C(C)(C)c2ccccc21 [compound 5, p-bis-pentamethinium salt 5]
Reply: 1.7

====

System: HFP4
Assay: in vitro
Set-up: MTT metabolic activity assay, absorbance at 570 nm
Details: replicate 1; single replicate; 48 h; read-out: Bis-PMS 5 (IC50 / µM)
Where a name gives a salt, the structure may show the parent alone.
experimental-readout: CC50

Ask: Annotate the molecule CN1C(=CC=C(C=CC2=[N+](C)c3ccccc3C2(C)C)c2ccc(C(C=CC3=[N+](C)c4ccccc4C3(C)C)=CC=C3N(C)c4ccccc4C3(C)C)cc2)C(C)(C)c2ccccc21 [compound 5, p-bis-pentamethinium salt 5] with its measured CC50.
Reply: 1.78 µM

====

Test system: BJ-hTERT
Assay: in vitro
Design: MTT metabolic activity assay, absorbance at 570 nm
Conditions: replicate 2; single replicate; 48 h; read-out: Bis-PMS 6 (IC50 / µM)
Where a name gives a salt, the structure may show the parent alone.
experimental-readout: CC50 (µM)
Only the number, expressed in µM, is required.

Ask: Assign CC50 to the following record: CN1C(=CC=C(C=CC2=[N+](C)c3ccccc3C2(C)C)c2cccc(C(C=CC3=[N+](C)c4ccccc4C3(C)C)=CC=C3N(C)c4ccccc4C3(C)C)c2)C(C)(C)c2ccccc21 [compound 6, m-bis-pentamethinium salt 6]
Reply: 1.66
